Test system: HepG2
Experiment: Growth inhibition of human HepG2 cells
Type: functional, cell-based
pIC50: −log10 of the molar value.
assayReadout: pIC50

C=C1[C@@H](OC(C)=O)CC[C@@]2(C)C[C@H](OC(=O)/C=C/c3ccccc3)C3=C(C)C[C@H](OC(C)=O)[C@@H]([C@@H](OC(C)=O)[C@H]12)C3(C)C
3.97

I = C=C1[C@@H](OC(C)=O)C[C@H](O)[C@@]2(C)C[C@H](OC(C)=O)C3=C(C)C[C@H](OC(=O)C(C)C(C)O)[C@@H]([C@@H](OC(C)=O)[C@H]12)C3(C)C (stereo partly drawn)
II = C=C1[C@@H](OC(C)=O)CC[C@@]2(C)C[C@H](OC(C)=O)C3=C(C)C[C@H](OC(=O)CCCC)[C@@H]([C@@H](OC(C)=O)[C@H]12)C3(C)C
### Prompt Could you check which of I and II has a smaller value for pIC50? Write down the label attached to your selection.
### Response I

----------
Target: ATP-dependent translocase ABCB1 (Homo sapiens)
Assay: Inhibition of Pgp in multidrug-resistant human 2780AD cells assessed as vincristine accumulation at 0.1 ug/mL relative to verapamil
Type: cell-based
Set-up: scale not given: the % may be the effect or the level left
Details: a2780 adr
assayReadout: Activity (%)

Worked cases, Activity given:
C=C1[C@@H](OC(C)=O)CC[C@@]2(C)C[C@H](OC(C)=O)C3=C(C)C[C@H](OC(=O)/C=C/c4ccccc4)[C@@H]([C@@H](OC(C)=O)[C@H]12)C3(C)C
87
C=C1[C@@H](OC(C)=O)CC[C@@]2(C)C[C@H](O)C3=C(C)C[C@H](OC(=O)/C=C/c4ccccc4)[C@@H]([C@@H](OC(C)=O)[C@H]12)C3(C)C
111
C=C1[C@@H](OC(C)=O)CC[C@@]2(C)C[C@H](OC(C)=O)C3=C(C)C[C@H](OC(C)=O)[C@@H]([C@@H](O)[C@H]12)C3(C)C
89

I = C=C1[C@@H](OC(C)=O)CC[C@@]2(C)C[C@H](OC(=O)/C=C/c3ccccc3)C3=C(C)C[C@H](OC(C)=O)[C@@H]([C@@H](OC(C)=O)[C@H]12)C3(C)C
II = C=C1[C@@H](OC(C)=O)CC[C@@]2(C)C[C@H](O)C3=C(C)C[C@H](OC(C)=O)[C@@H]([C@@H](OC(C)=O)[C@H]12)C3(C)C
### Prompt Could you check which of I and II has a smaller value for Activity? Write down the label attached to your selection.
### Response II

----------
Target: ATP-dependent translocase ABCB1 (Homo sapiens, UniProt P08183)
Sequence (P08183 whole entry): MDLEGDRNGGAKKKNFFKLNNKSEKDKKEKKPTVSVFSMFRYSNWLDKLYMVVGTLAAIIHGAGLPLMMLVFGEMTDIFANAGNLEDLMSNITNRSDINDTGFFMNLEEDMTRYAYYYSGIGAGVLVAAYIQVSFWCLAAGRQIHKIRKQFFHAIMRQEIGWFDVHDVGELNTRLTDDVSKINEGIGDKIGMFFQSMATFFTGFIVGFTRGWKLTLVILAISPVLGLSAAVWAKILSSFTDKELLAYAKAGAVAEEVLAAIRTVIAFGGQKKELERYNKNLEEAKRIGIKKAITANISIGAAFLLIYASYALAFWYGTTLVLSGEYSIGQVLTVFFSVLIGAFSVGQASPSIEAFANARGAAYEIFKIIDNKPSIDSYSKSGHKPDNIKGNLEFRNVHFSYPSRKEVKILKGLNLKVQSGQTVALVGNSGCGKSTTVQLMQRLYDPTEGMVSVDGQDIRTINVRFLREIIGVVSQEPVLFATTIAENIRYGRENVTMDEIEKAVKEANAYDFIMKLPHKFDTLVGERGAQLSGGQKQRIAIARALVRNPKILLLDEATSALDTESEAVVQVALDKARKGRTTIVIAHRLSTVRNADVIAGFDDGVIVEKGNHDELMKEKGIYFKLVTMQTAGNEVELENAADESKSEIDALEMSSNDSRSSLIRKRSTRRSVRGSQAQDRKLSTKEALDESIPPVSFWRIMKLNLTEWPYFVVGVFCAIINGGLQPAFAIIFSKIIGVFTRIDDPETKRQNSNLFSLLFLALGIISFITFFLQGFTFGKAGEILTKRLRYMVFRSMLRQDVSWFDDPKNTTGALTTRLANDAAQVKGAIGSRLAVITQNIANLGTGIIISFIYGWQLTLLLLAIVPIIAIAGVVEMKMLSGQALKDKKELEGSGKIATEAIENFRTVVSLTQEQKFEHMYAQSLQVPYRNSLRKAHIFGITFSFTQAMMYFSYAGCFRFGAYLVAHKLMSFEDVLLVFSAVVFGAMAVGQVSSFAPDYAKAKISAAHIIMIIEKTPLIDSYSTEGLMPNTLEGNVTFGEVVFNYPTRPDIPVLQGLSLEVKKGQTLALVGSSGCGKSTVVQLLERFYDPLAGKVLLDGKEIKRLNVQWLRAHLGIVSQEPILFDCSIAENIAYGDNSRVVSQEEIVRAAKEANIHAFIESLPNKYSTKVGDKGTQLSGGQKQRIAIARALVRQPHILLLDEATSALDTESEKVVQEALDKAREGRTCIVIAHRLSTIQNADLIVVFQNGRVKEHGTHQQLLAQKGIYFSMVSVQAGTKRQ
Test: Inhibition of Pgp in multidrug-resistant human 2780AD cells assessed as vincristine accumulation at 10 ug/mL relative to control
Format: cell-based
Parameters: scale not given: the % may be the effect or the level left
Conditions: a2780 adr
assayReadout: Activity (%)

Worked cases, Activity given:
C=C1[C@@H](OC(C)=O)CC[C@@]2(C)C[C@H](OC(C)=O)C3=C(C)C[C@H](O)[C@@H]([C@@H](OC(C)=O)[C@H]12)C3(C)C
242
C=C1[C@@H](OC(C)=O)CC[C@@]2(C)C[C@H](O)C3=C(C)C[C@H](OC(C)=O)[C@@H]([C@@H](OC(C)=O)[C@H]12)C3(C)C
229

A = C=C1[C@@H](OC(C)=O)CC[C@@]2(C)C[C@H](OC(=O)/C=C/c3ccccc3)C3=C(C)C[C@H](OC(C)=O)[C@@H]([C@@H](OC(C)=O)[C@H]12)C3(C)C
B = C=C1[C@@H](OC(C)=O)CC[C@@]2(C)[C@@H](O)[C@H](OC(C)=O)C3=C(C)C[C@H](OC(C)=O)[C@@H]([C@@H](OC(C)=O)[C@H]12)C3(C)C
### Prompt Could you check which of A and B has a smaller value for Activity? Write down the label attached to your selection.
### Response B
(B: 168%, A: 451%)

Source: ChEMBL document CHEMBL1139973
